Reported normalized growth by item:
Experiment: chemical genetic growth profiling, strain panel (AID 1159580);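 also: tested at 20 µM; growth read once vehicle control cultures reached saturation at 30 °C; 1 = growth at the plate median or of vehicle wells; lower values mean less growth of the strain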
Conditions: S. cerevisiae deletion strains, growth OD, locus YNL322C, strain KRE1, hits give low values
About 2,000 (36%) of roughly 5,500 compounds were called active. Not shown: some 18% with an inconclusive outcome. The list shows a part of the results.

[
  {
    "molecule": "O=C(O)c1cc2cc(Cl)ccc2[nH]1",
    "normalized growth": "1.01 (inactive)"
  },
  {
    "molecule": "CC(C(=O)O)c1ccc(CC2CCCC2=O)cc1 (centres undefined)",
    "normalized growth": "1.01 (inactive)"
  },
  {
    "molecule": "Cc1cc(C)nc(NS(=O)(=O)c2ccc(N)cc2)n1",
    "normalized growth": "0.997 (inactive)"
  },
  {
    "molecule": "COC(=O)c1ccccc1-n1cccc1C(=O)OC",
    "normalized growth": "0.992 (inactive)"
  },
  {
    "molecule": "Cc1ncc([N+](=O)[O-])n1CCO",
    "normalized growth": "0.986 (inactive)"
  },
  {
    "molecule": "CN1CCN(C(c2ccccc2)c2ccccc2)CC1",
    "normalized growth": "0.991 (inactive)"
  },
  {
    "molecule": "CCCCCc1ccc(S(=O)(=O)Nc2cccnc2Oc2ccc(Cl)cc2)cc1",
    "normalized growth": "0.995 (inactive)"
  },
  {
    "molecule": "O=C(O)CNC(=O)C(CS)Cc1ccccc1 (centres undefined)",
    "normalized growth": "0.995 (inactive)"
  },
  {
    "molecule": "C[N+](C)(C)CC=O",
    "normalized growth": "0.994 (inactive)"
  },
  {
    "molecule": "CC(C)CCCC(C)C1CCC2C3CCC4CC(=O)CCC4(C)C3CCC12C (centres undefined)",
    "normalized growth": "1.01 (inactive)"
  },
  {
    "molecule": "COc1ccc2c(c1)[nH]c1c(C)nccc12",
    "normalized growth": "1.01 (inactive)"
  },
  {
    "molecule": "CCN(C(=S)Nc1ccc(OC)cc1)c1ccccc1",
    "normalized growth": "1.02 (inactive)"
  },
  {
    "molecule": "CC(C)(C)c1cc(C(C)(C)C)n(-c2ccc([N+](=O)[O-])cc2)n1",
    "normalized growth": "1 (inactive)"
  },
  {
    "molecule": "CCn1cc([N+](=O)[O-])nc1C",
    "normalized growth": "0.997 (inactive)"
  }
]
